test summary: modulation of acetylcholine-evoked membrane potential, parental HEK293, confirmation, counter-screen for TRPC6 modulator project, cell-based, second counter-screen, membrane potential dye (AID 488926)
measurement setup: parental HEK293, membrane potential dye fluorescence, at 10 µM, after compound, maximal acetylcholine stimulation
The list shows a part of the results. Activity calls are given as the source filed them.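 How the source made its calls: active means membrane potential signal drops by more than 5 SD from the mean control signal, in both duplicate plates; inactive means the rest.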
Labels: active, inactive

# compound, group label
rows = [
    ("CCCc1cc(=O)oc2c(C)c(O)c(CN3CCCCC3)cc12", "inactive"),
    ("CC(=O)Nc1ccc(NC(=O)CN2CCCC(C)C2)c(Cl)c1 (configuration not stated)", "inactive"),
    ("O=S(=O)(c1cccc(Cn2nnc(-c3ccc(F)cc3)n2)c1)N1CCOCC1", "inactive"),
    ("O=C1CN(C(=O)c2ccccc2F)C(c2ccc(F)cc2)c2cc(F)ccc2N1 (configuration not stated)", "inactive"),
    ("CC(C)c1ccc(NC(=O)Cn2ncc3ccccc32)cc1", "inactive"),
    ("CCC(C)NCCOCCOc1ccc(Br)cc1C (configuration not stated)", "inactive"),
    ("O=C1c2ccccc2C(=O)c2c1cccc2N1CCN(CCO)CC1", "active"),
    ("CCCN(CCc1ccccc1)C1CCc2c(O)cccc2C1 (configuration not stated)", "inactive"),
    ("Cc1cccc(NC(=S)NCCN(C2CCCCC2)C2CCCC2)c1", "inactive"),
    ("C/C(=N\\Nc1nc2ccccc2[nH]1)c1cccs1", "active"),
    ("CCCC(=O)Nc1ccc(C(=O)NCCCn2ccnc2)cc1", "inactive"),
    ("CN(CC(=O)Nc1ccccc1[N+](=O)[O-])Cc1ccc(Br)cc1", "inactive"),
]

---

target or system: Short transient receptor potential channel 6 (Mus musculus) (UniProt Q61143)
Sequence (Q61143 whole entry, looked up): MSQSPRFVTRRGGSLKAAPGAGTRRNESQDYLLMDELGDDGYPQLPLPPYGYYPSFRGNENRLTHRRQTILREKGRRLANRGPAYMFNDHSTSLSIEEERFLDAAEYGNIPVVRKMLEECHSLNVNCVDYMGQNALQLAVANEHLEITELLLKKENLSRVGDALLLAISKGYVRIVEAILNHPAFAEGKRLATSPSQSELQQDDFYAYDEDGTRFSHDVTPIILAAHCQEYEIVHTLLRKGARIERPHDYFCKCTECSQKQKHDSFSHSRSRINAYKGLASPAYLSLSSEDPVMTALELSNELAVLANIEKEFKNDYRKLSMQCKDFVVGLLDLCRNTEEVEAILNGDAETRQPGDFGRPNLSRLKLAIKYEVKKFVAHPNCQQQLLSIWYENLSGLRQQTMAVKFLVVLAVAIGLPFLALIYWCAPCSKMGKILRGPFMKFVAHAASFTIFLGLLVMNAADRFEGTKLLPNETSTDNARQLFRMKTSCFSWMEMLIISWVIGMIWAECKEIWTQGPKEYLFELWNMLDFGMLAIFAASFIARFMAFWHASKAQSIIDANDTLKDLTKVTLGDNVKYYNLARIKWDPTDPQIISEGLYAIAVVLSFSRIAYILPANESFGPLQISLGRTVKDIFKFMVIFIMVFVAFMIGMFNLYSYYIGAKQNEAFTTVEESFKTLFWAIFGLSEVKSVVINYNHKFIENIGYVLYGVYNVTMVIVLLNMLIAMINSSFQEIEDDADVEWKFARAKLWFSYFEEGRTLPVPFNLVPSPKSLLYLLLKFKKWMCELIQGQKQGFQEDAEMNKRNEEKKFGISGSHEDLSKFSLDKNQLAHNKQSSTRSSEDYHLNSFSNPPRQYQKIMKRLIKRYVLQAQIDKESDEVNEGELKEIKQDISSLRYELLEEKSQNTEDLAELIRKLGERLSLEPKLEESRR
test summary: inhibition of mouse TRPC6 channel, confirmation, selectivity assay for TRPC4 inhibitor project, cell-based, HEK293, membrane potential dye, duplicate (AID 434948)
measurement setup: HEK293 TRPC6, membrane potential dye fluorescence, at 10 µM, stimulated with maximal-effect acetylcholine
The source made the active and inactive calls.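 How the source made its calls: active means active in primary screen and both duplicates, each dropping signal beyond three positive-control SD with fluorescence still positive; inactive means the rest.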
Labels: 1 (yes) (active), 0 (no) (inactive)

# compound, group label
measured = [
    ("Cc1ccc(C(=O)NNC(=S)NC(=O)c2ccc(Cl)cc2)cc1", "0 (no)"),
    ("COc1ccc(-c2nn(-c3ccccc3)cc2CNCc2cccnc2)c(F)c1", "0 (no)"),
    ("CCCCN(CC)CCCNC(=O)Cn1nc(Cc2ccncc2)c2ccccc2c1=O", "0 (no)"),
    ("CN(C)CCCN(C(=O)c1ccc(S(=O)(=O)N(C)Cc2ccccc2)cc1)c1nc2cc3c(cc2s1)OCO3", "0 (no)"),
    ("CCCc1c(O)nc(SCCN(CCC)CCC)[nH]c1=O", "0 (no)"),
    ("COc1cccc(C(=O)N(C)CC2CCN(CCc3cccc(C(F)(F)F)c3)CC2)c1", "0 (no)"),
    ("COc1cc(OC)cc(C(=O)NC2CCCN(Cc3ccc(Cl)cc3)C2)c1 (centres undefined)", "0 (no)"),
    ("CCn1c(N2CCN(Cc3ccc([N+](=O)[O-])cc3)CC2)nc2ccccc21", "0 (no)"),
    ("CN(CCc1nc2ccc(Cl)cc2[nH]1)Cc1nc(CC2CC2)no1", "0 (no)"),
    ("CC(C)c1ccc(NC(=S)N(C)CCc2ccccn2)cc1", "0 (no)"),
    ("C=CCn1c(CCNC(=O)c2ccco2)nc2ccccc21", "0 (no)"),
    ("COc1ccc(C(CNC(=O)c2ccc(S(=O)(=O)N(C)C)cc2)N(C)C)cc1 (centres undefined)", "0 (no)"),
    ("Cc1cccc(C(=O)NC(=S)NNC(=O)c2cccs2)c1", "0 (no)"),
    ("CC1CCCN(CCOCCOc2ccccc2-c2ccccc2)C1 (centres undefined)", "0 (no)"),
    ("COc1cc(/C=C2/SC(=S)N(Cc3ccccc3)C2=O)cc(Cl)c1O", "0 (no)"),
    ("O=C(NC(=S)NNC(=O)[C@H]1C[C@@H]1c1ccccc1)c1cccc(F)c1", "0 (no)"),
    ("COc1ccc(C(CNC(=O)C(C)c2ccc3cc(OC)ccc3c2)N(C)C)cc1 (centres undefined)", "0 (no)"),
    ("O=C(NNC(=S)NC(=O)C12CC3CC(CC(C3)C1)C2)c1ccncc1", "0 (no)"),
    ("COc1ccc(C(CNCC(=O)Nc2ccccc2F)N(C)C)cc1 (centres undefined)", "0 (no)"),
    ("Cc1ccccc1OCC(=O)NNC(=S)NC(=O)c1ccco1", "0 (no)"),
    ("COc1cc(OC)cc(C(=O)NC(=S)NNC(=O)[C@H]2C[C@@H]2c2ccccc2)c1", "0 (no)"),
    ("CCCC(=O)NC(C)C(c1cccs1)N1CCN(c2ccccc2)CC1 (centres undefined)", "0 (no)"),
    ("O=C(C[n+]1cc2ccccc2c2ccccc21)c1ccccc1", "1 (yes)"),
    ("Cc1cccc(C(=O)NNC(=S)NC(=O)c2ccccc2)c1", "0 (no)"),
    ("Cc1ccc(COn2c(-c3ccc(Cl)cc3Cl)nc3ncccc32)cc1", "0 (no)"),
    ("CCOc1ccccc1CN1CCNC(=O)C1CC(=O)N(C)CCc1ccccn1 (centres undefined)", "0 (no)"),
    ("CC(C)(C)c1ccccc1NC(=O)NC1CCN(Cc2c(F)cccc2Cl)CC1", "0 (no)"),
    ("Cc1ccccc1Nc1nc(NCc2ccco2)c2ccccc2n1", "1 (yes)"),
    ("CN(C)C(CNC(=O)c1cnc(Cl)c(Cl)c1)c1ccccc1 (centres undefined)", "0 (no)"),
    ("CC(=O)N1CCc2cc(Br)cc(S(=O)(=O)NCCCN(C)Cc3ccccc3)c21", "0 (no)"),
    ("O=C(c1c(F)cccc1F)N1CCN(c2ncc(Br)cn2)CC1", "0 (no)"),
    ("O=C(CNS(=O)(=O)c1ccc2ccccc2c1)NCCc1ccccn1", "0 (no)"),
    ("CCN1/C(=C\\c2ccc3ccccc3[n+]2CC)Sc2cc(C)ccc21", "0 (no)"),
    ("Cc1cccc(C(=O)NNC(=S)NC(=O)c2cccs2)c1", "0 (no)"),
    ("O=C(NCc1ccccc1)C1=C[C@H](c2ccc3c(c2)OCO3)C[C@H](OCc2ccc(CO)cc2)O1", "0 (no)"),
    ("CCCOc1ccc(C(=O)NNC(=S)NC(=O)c2ccco2)cc1", "0 (no)"),
    ("CCCN(CCC)CCCNc1ccc2nnc(-c3ccc(F)cc3)n2n1", "0 (no)"),
    ("CCOC(=O)C1(CCc2ccccc2)CCN(Cc2ccc(O)cc2)CC1", "0 (no)"),
    ("COC(=O)C1=C(C)N(Cc2ccccc2)C(=NCCc2ccccn2)N[C@H]1c1cccc(F)c1", "0 (no)"),
    ("COc1ccc(Cl)cc1NC(=O)CNCC(c1ccccc1)N(C)C (centres undefined)", "0 (no)"),
    ("CNC[C@H](CC1CCCCC1)NC[C@H](Cc1ccccc1)NCCC12CC3CC(CC(C3)C1)C2", "0 (no)"),
    ("CN(C)C(CNc1ncnc2sc3c(c12)CCCC3)c1ccco1 (centres undefined)", "0 (no)"),
    ("Cc1ccc(-n2cc(CNCCc3ncc(C)[nH]3)c(-c3ccc(F)cc3)n2)cc1", "0 (no)"),
    ("Cc1ccc(C)c(S(=O)(=O)N2CCN(C(=O)CCc3nc4ccccc4c(=O)[nH]3)CC2)c1", "0 (no)"),
]

---

target or system: Potassium voltage-gated channel subfamily KQT member 2 (Rattus norvegicus) (UniProt O88943)
Sequence (O88943 whole entry, looked up): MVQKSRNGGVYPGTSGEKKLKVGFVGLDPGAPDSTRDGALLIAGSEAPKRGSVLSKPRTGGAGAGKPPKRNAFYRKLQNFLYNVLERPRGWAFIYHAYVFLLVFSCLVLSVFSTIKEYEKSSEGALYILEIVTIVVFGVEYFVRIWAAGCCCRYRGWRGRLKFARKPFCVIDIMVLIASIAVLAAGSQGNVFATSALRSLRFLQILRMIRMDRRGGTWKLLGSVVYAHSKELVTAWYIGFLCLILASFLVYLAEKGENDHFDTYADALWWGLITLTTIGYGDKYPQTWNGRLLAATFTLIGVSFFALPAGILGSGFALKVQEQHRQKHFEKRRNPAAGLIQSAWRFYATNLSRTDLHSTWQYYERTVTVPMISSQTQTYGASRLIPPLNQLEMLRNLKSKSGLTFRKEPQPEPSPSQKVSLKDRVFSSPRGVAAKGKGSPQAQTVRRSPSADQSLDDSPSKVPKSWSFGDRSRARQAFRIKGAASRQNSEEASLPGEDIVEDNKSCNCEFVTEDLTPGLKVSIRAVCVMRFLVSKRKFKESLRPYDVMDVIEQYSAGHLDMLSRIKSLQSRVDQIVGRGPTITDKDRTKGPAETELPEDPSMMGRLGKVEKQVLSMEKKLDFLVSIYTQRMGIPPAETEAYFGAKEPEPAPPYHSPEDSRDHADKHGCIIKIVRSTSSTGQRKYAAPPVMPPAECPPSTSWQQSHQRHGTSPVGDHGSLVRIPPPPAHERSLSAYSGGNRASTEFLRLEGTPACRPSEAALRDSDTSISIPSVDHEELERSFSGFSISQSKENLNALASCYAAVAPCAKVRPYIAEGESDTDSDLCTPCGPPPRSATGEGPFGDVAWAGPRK
test summary: rat KCNQ2 channel potentiation, selectivity assay for KCNQ1 potentiator project, KCNQ2-CHO-K1 cells (AID 493009);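 further: assay conditions were tuned for KCNQ1 rather than KCNQ2 modulators; signal is max minus min fluorescence divided by baseline after thallium stimulus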
measurement setup: FluxOR thallium flux fluorescence, at 10 µM, scaled: buffer 0, activator control 100
Calls of active or inactive are those of the source.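 Rule for the calls: active = mean duplicate potentiation above the buffer control mean plus 5 SD of buffer wells; inactive = the rest.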
Labels: 1 (active), -1 (inactive)

# molecule, group label
records = [
    ("O=C(NC(=S)Nc1ccccc1)c1csnn1", 1),
    ("COc1ccc(NS(=O)(=O)c2ccc(N/N=C(\\C)c3ccncc3)c([N+](=O)[O-])c2)cc1", -1),
    ("Cc1ccc(Cc2cnc(N3C(=N)SC(c4ccccc4)C3=O)s2)cc1 (stereo not drawn)", -1),
    ("Fc1cccc(/C=N/NC(=S)Nc2ccccc2Cl)c1", 1),
    ("Cc1cc(-c2cccnc2)c(C#N)c(SCC#N)n1", -1),
    ("COc1ccc(Cl)cc1C(=O)NNC(=S)NC(=O)c1cc(-c2ccccc2)nc2ccccc12", -1),
    ("Cc1cc(C)c(S(=O)(=O)Nc2cccc3nsnc23)c(C)c1", -1),
    ("COc1cc(OC)cc(C(=O)NC(=S)N(Cc2ccccc2)C(C)C)c1", 1),
    ("Cc1cc(C)n(CCNS(=O)(=O)c2ccccc2)n1", -1),
    ("Oc1ccc(C[C@@H]2CNCCN2CCc2cc(C(F)(F)F)cc(C(F)(F)F)c2)cc1", -1),
    ("CC1(C)CC(=O)C2=C(C1)N(c1cccc(Cl)c1)C(=O)NC2(C(F)(F)F)C(F)(F)F", -1),
    ("O=C(NC(=S)N1CCN(c2ccc(F)cc2)CC1)c1cccs1", 1),
    ("Cc1ccc(-c2nc3ccccc3o2)cc1NC(=S)NC(=O)c1cc2ccccc2o1", -1),
    ("CC1Cc2ccccc2N1C(=S)NC(=O)C1(C)CC1(Cl)Cl (stereo not drawn)", 1),
    ("COC(=O)c1c(NC(=O)c2ccccc2)sc(C(=O)c2ccccc2)c1C", -1),
    ("CCCCOC(=S)NC(=O)c1sc2ccccc2c1Cl", 1),
    ("NC(=S)Nc1nc2ccccc2s1", 1),
    ("CCN(CC)c1ccc(/C=N/Nc2nc3ccccc3[nH]2)c(O)c1", -1),
    ("S=c1[nH]cnc2scc(-c3ccc(Cl)cc3)c12", 1),
    ("CCCCC(=O)NNC(=S)NC(=O)C(c1ccccc1)c1ccccc1", -1),
    ("CCOc1ccc(/C=C2/SC(=O)NC2=S)cc1", 1),
    ("COc1ccc(Cl)cc1N(C)C(=O)CCNC(=O)Cn1cnc2ccccc2c1=O", 1),
    ("S=C(NN=C1CCCCCC1)Nc1ccc(Cl)cc1", -1),
]
